- testTarget: human androgen receptor (AR) (Homo sapiens, UniProt P10275)
- Construct: expressed in transfected cells; host or cells: mouse myoblast C2C12 cells, transiently co-transfected
- Sequence (P10275 1-920): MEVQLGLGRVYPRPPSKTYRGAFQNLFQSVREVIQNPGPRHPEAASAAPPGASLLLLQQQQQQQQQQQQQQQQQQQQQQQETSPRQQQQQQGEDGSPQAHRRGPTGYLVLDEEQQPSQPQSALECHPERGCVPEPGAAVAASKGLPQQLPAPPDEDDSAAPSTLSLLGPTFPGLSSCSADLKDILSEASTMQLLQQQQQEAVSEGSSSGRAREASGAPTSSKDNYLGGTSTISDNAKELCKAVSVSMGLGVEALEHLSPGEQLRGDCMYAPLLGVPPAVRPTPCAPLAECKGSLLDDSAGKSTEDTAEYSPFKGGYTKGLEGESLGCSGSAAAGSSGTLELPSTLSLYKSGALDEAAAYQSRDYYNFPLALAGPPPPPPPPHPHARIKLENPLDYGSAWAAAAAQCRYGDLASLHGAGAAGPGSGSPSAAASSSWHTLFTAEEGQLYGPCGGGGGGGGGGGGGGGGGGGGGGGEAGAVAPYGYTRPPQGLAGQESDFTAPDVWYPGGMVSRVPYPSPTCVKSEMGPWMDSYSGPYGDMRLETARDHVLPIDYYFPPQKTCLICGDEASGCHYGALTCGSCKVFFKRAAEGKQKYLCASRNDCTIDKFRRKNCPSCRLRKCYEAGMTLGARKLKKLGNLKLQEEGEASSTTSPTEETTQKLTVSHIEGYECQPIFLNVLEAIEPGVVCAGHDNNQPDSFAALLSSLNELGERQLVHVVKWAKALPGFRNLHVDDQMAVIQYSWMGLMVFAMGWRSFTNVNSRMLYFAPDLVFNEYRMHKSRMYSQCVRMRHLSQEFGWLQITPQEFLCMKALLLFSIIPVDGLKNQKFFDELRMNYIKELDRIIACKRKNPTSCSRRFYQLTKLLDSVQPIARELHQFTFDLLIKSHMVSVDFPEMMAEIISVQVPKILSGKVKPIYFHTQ
- experimentalProtocol: C2C12 AR/ARE reporter assay
- Assay type: cell-based
- conditionSet: C2C12, read-out: C2C12 % Efficacy
readoutLabel: Emax (%)
Give bare numbers, in %.

Examples with answers:
compound	Emax [%]
CC(C)C(=O)NC1CCc2c(c3cc(F)ccc3n2Cc2ccccc2Cl)C1 (stereo not drawn)	80.3
CC(C)C(=O)NC1CCc2c(c3cc(C#N)ccc3n2Cc2ccc(F)cn2)C1 (stereo not drawn)	93.5
CC(C)C(=O)NC1CCc2c(c3cc(Cl)ccc3n2Cc2ccc(C#N)cc2)C1 (stereo not drawn)	64.3

Count: 5. Required value per item: Emax.
1. CC(C)C(=O)NC1CCc2c(c3ccccc3n2Cc2ccccc2)C1 (stereo not drawn)
2. COc1cccc(Cn2c3c(c4cc(F)ccc42)CC(NC(=O)C(C)C)CC3)c1 (stereo not drawn)
3. CC(C)C(=O)NC1CCc2c(c3cc(N(C)C)ccc3n2Cc2cccc(F)c2)C1 (stereo not drawn)
4. O=Cc1ccc2c(c1)c1c(n2Cc2ccccn2)CCC(NC(=O)C2CC2)C1 (stereo not drawn)
5. CC(C)C(=O)NC1CCc2c(c3cc(C#N)ccc3n2Cc2cscn2)C1 (stereo not drawn)

Resp:
1. 59.4
2. 40.4
3. 56.1
4. 96.1
5. 102

Count: 8. Required value per item: Emax.
1. CC(C)C(=O)NC1CCc2c(c3cc(F)ccc3n2Cc2ccc(F)cc2)C1 (stereo not drawn)
2. CC(C)C(=O)NC1CCc2c(c3cc(-c4nnc(N)s4)ccc3n2Cc2cccc(F)c2)C1 (stereo not drawn)
3. COC(=O)Nc1ccc2c(c1)c1c(n2Cc2cccc(F)c2)CC[C@@H](NC(=O)C(C)C)C1
4. CC(C)C(=O)NC1CCc2c(c3cc(Br)ccc3n2Cc2ccccc2)C1 (stereo not drawn)
5. COc1ccc(Cn2c3c(c4cc(C#N)ccc42)CC(NC(=O)C(C)C)CC3)cc1 (stereo not drawn)
6. COc1ccc2c(c1)c1c(n2Cc2ccccc2)CCC(NC(=O)C2CC2)C1 (stereo not drawn)
7. CCOc1ccc2c(c1)c1c(n2Cc2cccc(F)c2)CCC(NC(=O)C(C)C)C1 (stereo not drawn)
8. CC(C)C(=O)NC1CCc2c(c3cc(C#N)ccc3n2Cc2ccccc2)C1 (stereo not drawn)

Resp:
1: 50; 2: 75.8; 3: 86; 4: 87; 5: 10.6; 6: 98; 7: 82.4; 8: 79.8

Count: 2. Required value per item: Emax.
1. CC(C)C(=O)NC1CCc2c(c3cc(Br)ccc3n2Cc2ccccc2F)C1 (stereo not drawn)
2. CC(C)C(=O)NC1CCc2c(c3cc(C#N)ccc3n2Cc2ccccc2NS(C)(=O)=O)C1 (stereo not drawn)

Resp:
1: 70.8; 2: 97.7
